- System: SRS-A (slow reacting substance of anaphylaxis) contraction of ileum
- experiment: Anti-SRS-A action using ileus of guinea pigs
- Format: cell-based, Hartley strain male guinea pigs
- measurementSetup: Cavia porcellus, 5 min, 1/1000 mM; guinea pig ileum; SRS-A 20 units; compound five minutes before; read-out: 1/1000 mM SRS-A Inhibition Ratio %
readout: inhibition at 1 µM (%)
Response body: numeric value in %, unit text excluded.

Examples from the recorded data:
[[record]]
smilesdata = "O=C(O)c1ccc2[nH]c(-c3ccccc3Br)cc(=O)c2c1"
readout = "inhibition at 1 µM"
quantityunit = "%"
readoutnumber = 25.7

[[record]]
smilesdata = "CCOC(=O)c1cccc2c(=O)cc(-c3ccc(C(C)C)cc3)[nH]c12"
readout = "inhibition at 1 µM"
quantityunit = "%"
readoutnumber = 44

[[record]]
smilesdata = "CC(=O)COC(=O)c1cccc2c(=O)cc(-c3ccccc3Cl)[nH]c12"
readout = "inhibition at 1 µM"
quantityunit = "%"
readoutnumber = 20.4

[[record]]
smilesdata = "CCOc1ccccc1-c1cc(=O)c2cc(C(=O)OC)ccc2[nH]1"
readout = "inhibition at 1 µM"
quantityunit = "%"
readoutnumber = 63

[[record]]
smilesdata = "CCOC(=O)c1cccc2c(=O)cc(-c3ccc(OC)cc3OC)[nH]c12"
readout = "inhibition at 1 µM"
quantityunit = "%"
readoutnumber = 95

[[record]]
smilesdata = "O=C1CC(c2ccccc2Cl)=Nc2c1cccc2C(=O)OCCO"
readout = "inhibition at 1 µM"
quantityunit = "%"
readoutnumber = 100

[[record]]
smilesdata = "O=C(OCCCO)c1cccc2c(=O)cc(-c3ccccc3Cl)[nH]c12"
readout = "inhibition at 1 µM"
quantityunit = "%"
readoutnumber = 27.4

[[record]]
smilesdata = "CCn1c(-c2ccccc2)cc(=O)c2cc(C(=O)O)ccc21"
readout = "inhibition at 1 µM"
quantityunit = "%"
readoutnumber = 28.9


Read off the recorded inhibition at 1 µM for CCc1ccccc1-c1cc(=O)c2cc(C(=O)OC)ccc2[nH]1 41.3

---

- Test system: SRS-A (slow reacting substance of anaphylaxis) contraction of ileum
- experiment: Anti-SRS-A action using ileus of guinea pigs
- Type: cell-based, Hartley strain male guinea pigs
- measurementSetup: Cavia porcellus, 5 min, 1/1000 mM; guinea pig ileum; SRS-A 20 units; compound five minutes before; read-out: 1/1000 mM SRS-A Inhibition Ratio %
Entries and their inhibition at 1 µM values follow.
Could you give me the number in %? Just the number is fine.

Previously resolved entries follow.
[[record]]
smilesdata = "CCCCCc1ccc(-c2cc(=O)c3cc(C(=O)O)ccc3[nH]2)cc1"
readoutnumber = 61.4

[[record]]
smilesdata = "CCOC(=O)c1cccc2c(=O)cc(-c3ccccc3F)[nH]c12"
readoutnumber = 33.3

[[record]]
smilesdata = "O=C(OCCO)c1cccc2c(=O)cc(-c3ccc(Cl)cc3)[nH]c12"
readoutnumber = 21.3

[[record]]
smilesdata = "O=C(O)c1cccc2c(=O)cc(-c3ccc(Cl)cc3Cl)[nH]c12"
readoutnumber = 53.6


Kindly indicate its recorded inhibition at 1 µM. Item: COC(=O)c1ccc2[nH]c(-c3ccc(Cl)cc3)cc(=O)c2c1 20.6

Provide only the value of recorded inhibition at 1 µM for Cc1ccc(-c2cc(=O)c3cccc(C(=O)OCCO)c3[nH]2)cc1C 10.8

Output measured inhibition at 1 µM for this item: O=C(OCCCCCO)c1cccc2c(=O)cc(-c3ccccc3Cl)[nH]c12 23.7

Kindly indicate its recorded inhibition at 1 µM. Item: COC(=O)c1ccc2[nH]c(-c3ccco3)cc(=O)c2c1 25.6

Identify measured inhibition at 1 µM corresponding to O=C(O)c1ccc2[nH]c(-c3cccnc3)cc(=O)c2c1 23.8

Origin of the recorded values: patent US4711898A
